# Assay Text: Human HepG2 cell viability assay in 384 well format
# Assay type: toxicity, cell-based
# Design: dose 125 nL, time 70.5 hour; concentration not given beside the values
# Experimental Context: HepG2 cells, read-out: Inhibition
Overview of reported cytotoxicity at 70.5 h across a group of compounds:
Dear colleague, please return just the value in %, with no unit written.

COc1ccnc(CNc2cc(C3CC3)ncn2)c1 | -11.7

# input Identify measured cytotoxicity at 70.5 h corresponding to Cn1cc(CN2CCOCC3(C2)CN(c2ccccc2)C(=O)CO3)cn1 (stereo unspecified)
# output -5.28

# input Identify measured cytotoxicity at 70.5 h corresponding to `CC(C)c1ccc(CN2CCN(C(=O)c3cc(C4CC4)[nH]n3)CC2)cc1`
# output 44.7

# input Identify measured cytotoxicity at 70.5 h corresponding to `O=C1CCCc2[nH]c(=O)c(C(=O)N(CC3CCCCC3)C3CC3)cc21`
# output -7.98

# input Identify measured cytotoxicity at 70.5 h corresponding to `O=C(NC1CCN(c2cc(-n3ccnc3)ncn2)CC1)c1ccncc1`
# output -10.4

# input Identify measured cytotoxicity at 70.5 h corresponding to Cc1nc(C)n(CC2CCCN2CCCc2nc3ccccc3o2)n1 (stereo unspecified)
# output -5.85

# input Identify measured cytotoxicity at 70.5 h corresponding to Cc1nccn1C1CCCN(C(=O)c2ccc(N3CCCC3)nn2)C1 (stereo unspecified)
# output -4.33

# input Identify measured cytotoxicity at 70.5 h corresponding to CCC(=O)N1CCC(Cc2ccccc2-c2ccccc2)(C(N)=O)C1 (stereo unspecified)
# output -20.3

# input Identify measured cytotoxicity at 70.5 h corresponding to COc1ccc(CCc2nnc(NC(=O)C3CC34CCC4)s2)cc1OC (stereo unspecified)
# output -8.17

# input Identify measured cytotoxicity at 70.5 h corresponding to `Cc1nc2ccccc2nc1CN1CCn2nc(CCC(=O)O)cc2C1`
# output -7.38

# input Identify measured cytotoxicity at 70.5 h corresponding to CCCn1cc(CN2CCCC2c2cccc(-n3ccnc3)n2)cn1 (stereo unspecified)
# output -7.28

* * *

# Assay Text: Human HepG2 cell viability assay in 384 well format
# Type: toxicity, cell-based
# Parameters: dose 125 nL, time 70.5 hour; concentration not given beside the values
# Experimental Context: HepG2 cells, read-out: Inhibition
Endpoint Name: cytotoxicity at 70.5 h (%)
Dear colleague, please return just the value in %, with no unit written.

Before answering, review these 6 worked examples.
Cc1cc(NCCNS(=O)(=O)c2cn(C)nc2C)c2ccccc2n1 | 13.5
COc1ccc(CN2C[C@@H](O)[C@](O)(CNC(=O)c3ccccn3)C2)cc1 | -7.06
CCn1ccc(-c2cc(NCCCOc3ccccc3C)nc(C)n2)n1 | -1.9
O=C(c1ccsc1)N1CCC2(CC1)CCN(S(=O)(=O)C1CC1)CC2 | -9.77
c1csc(CNCC2COCc3c(-c4ccsc4)nnn3C2)n1 (configuration not stated) | -7.15
N#Cc1ccc(C(=O)N2CC[C@H]3[C@H]2CCN3CC2CC2)cc1 | -10.6

# input Identify measured cytotoxicity at 70.5 h corresponding to CC(=O)N(Cc1ncc(C)o1)C1CCN(Cc2cnc(C)s2)C1 (configuration not stated)
# output -6.82

# input Identify measured cytotoxicity at 70.5 h corresponding to `Cc1nc(C)c(CC(=O)NCc2ccc(F)cc2)s1`
# output -11.4

# input Identify measured cytotoxicity at 70.5 h corresponding to `CNc1nc2c(c(C(=O)N3CCCC3)n1)CN(Cc1ccco1)CC2`
# output -3.76

* * *

# Assay Text: Human HepG2 cell viability assay in 384 well format
# Type: toxicity, cell-based
# Set-up: dose 125 nL, time 70.5 hour; concentration not given beside the values
# Experimental Context: HepG2 cells, read-out: Inhibition
Overview of reported cytotoxicity at 70.5 h across a group of molecules:
Dear colleague, please return just the value in %, with no unit written.

CCCC1C=CCN1C(=O)c1cc(COc2ccccc2)[nH]n1 (configuration not stated) | -6.23
CN(Cc1cn2ccccc2n1)C1CCCN(c2cccnn2)C1 (configuration not stated) | 12.5
COCCCNC(=O)Cn1c(C)cc(=O)n2nc(-c3cccs3)nc12 | -7.89
Cc1ccc(C(=O)N2CCCC(c3[nH]ncc3S(C)(=O)=O)C2)s1 (configuration not stated) | 10.6
COc1ccccc1OCCN1CCCC(c2noc(C3CC3)n2)C1 (configuration not stated) | -0.413
COc1c(C)cc(C(C(=O)O)N(C)Cc2ccn[nH]2)cc1C (configuration not stated) | -3.26
Cc1ccc(N2CCCC(NCc3ccncc3)C2)nn1 (configuration not stated) | 11.6
Cn1ccc(C(=O)NCc2ccc(N3CCOCC3)nc2)cc1=O | -12
CNC(=O)[C@@H]1COC[C@H]2CN(C(=O)c3ccc(OC)cc3)C[C@H]21 | -2.56
CC(CO)(NC(=O)Nc1nnc(C2CC2)s1)C1CCCCC1 (configuration not stated) | -11.1

# input Identify measured cytotoxicity at 70.5 h corresponding to `O=C(CNc1cccc(CC(F)(F)F)c1)NCc1ccco1`
# output -4.32

# input Identify measured cytotoxicity at 70.5 h corresponding to `O=C1CO[C@@H]2CN(Cc3ccsc3)C[C@H]2N1Cc1ccncc1`
# output 13.6

# input Identify measured cytotoxicity at 70.5 h corresponding to `Cc1nnc(NCC2(c3ccc(Cl)cc3Cl)CCOCC2)c(C#N)c1C`
# output 13.2

# input Identify measured cytotoxicity at 70.5 h corresponding to `CCCN(CCC)C1(Cc2cc(-c3cccc(O)c3)on2)COC1`
# output -2.95

# input Identify measured cytotoxicity at 70.5 h corresponding to `CC(C)c1ncc2c(n1)CN(Cc1cccc3c1OCCO3)CC2`
# output 0.0459

# input Identify measured cytotoxicity at 70.5 h corresponding to `COCCN(Cc1cccs1)c1nc(CCN)nc2ccccc12`
# output -9.93

# input Identify measured cytotoxicity at 70.5 h corresponding to `CC(=O)N1CCO[C@@H]2CN(S(=O)(=O)c3ccccc3F)C[C@@H]2C1`
# output -10.2

# input Identify measured cytotoxicity at 70.5 h corresponding to CCC(C)C(=O)Nc1ccc2oc(=O)n(CCN(C)C)c2c1 (configuration not stated)
# output -1.79

# input Identify measured cytotoxicity at 70.5 h corresponding to CCOc1ccc2nc(CN3CCC(CN)C3)ccc2c1 (configuration not stated)
# output -2.57

# input Identify measured cytotoxicity at 70.5 h corresponding to `Cc1noc2nc3c(c(C(=O)/N=c4\[nH]nc(C(C)C)s4)c12)CCC3`
# output -12.5

# input Identify measured cytotoxicity at 70.5 h corresponding to CNC(=O)c1ccc(C2CCCN(C(=O)c3sc(C)nc3C)C2)nc1 (configuration not stated)
# output 2.08

# input Identify measured cytotoxicity at 70.5 h corresponding to CC(C)CN(CC(O)c1ccccc1)C(=O)NC(C)C (configuration not stated)
# output -4.36

# input Identify measured cytotoxicity at 70.5 h corresponding to `CN(CCCOc1ccccc1Cl)C(=O)CN1CCNC1=O`
# output -1.34

* * *

# Assay Text: Human HepG2 cell viability assay in 384 well format
# Assay type: toxicity, cell-based
# Set-up: dose 125 nL, time 70.5 hour; concentration not given beside the values
# Experimental Context: HepG2 cells, read-out: Inhibition
Overview of reported cytotoxicity at 70.5 h across a group of compounds:
Dear colleague, please return just the value in %, with no unit written.

Before answering, review these 3 worked examples.
CCn1cc(NC(=O)NCC(c2ccsc2)N(C)C)cn1 (stereo unspecified) | -6.99
CCCc1cc(C(=O)N2CCC3(CCCN(CCO)C3=O)C2)cs1 (stereo unspecified) | -0.486
CC(C)Cc1noc(CN2CCOCC2C)n1 (stereo unspecified) | -1.45

# input Identify measured cytotoxicity at 70.5 h corresponding to CC(C)(C)c1cc(CN2CCOC(CCc3ccccc3)C2)n[nH]1 (stereo unspecified)
# output -9.92

# input Identify measured cytotoxicity at 70.5 h corresponding to c1nc2c(c(NC3CCc4ncnn4C3)n1)CCC2 (stereo unspecified)
# output -8.75

# input Identify measured cytotoxicity at 70.5 h corresponding to COc1nc2c(cc1C(=O)NC(C)Cc1cnccn1)CCC2 (stereo unspecified)
# output -7.71

* * *

Overview of reported cytotoxicity at 70.5 h across a group of molecules:
# Assay Text: Human HepG2 cell viability assay in 384 well format
# Assay type: toxicity, cell-based
# Design: dose 125 nL, time 70.5 hour; concentration not given beside the values
# Experimental Context: HepG2 cells, read-out: Inhibition
Dear colleague, please return just the value in %, with no unit written.

Before answering, review these 10 worked examples.
Cc1nnc([C@]23COC[C@H]2CN(S(=O)(=O)c2cccnc2)C3)o1 | -5.13
Cc1cccc(-c2nc(C)nn2CN2CCN(S(C)(=O)=O)CC2)c1 | -3.93
CN(C)c1cc(C(=O)N2CCCC2)ccn1 | -10
O=C(COc1cccc(F)c1)N1C[C@@H](O)[C@H](N2CCOCC2)C1 | -5.2
COCCC(=O)NC[C@H]1CC[C@H](C(c2ccccn2)N(C)C)CC1 (stereo partly drawn) | -2.06
CC(C(=O)O)N1CCc2onc(-c3ccc4c(c3)OCO4)c2C1 (stereo not drawn) | -3.84
Cc1cc(NCC(=O)N(C)C)c(C(N)=O)cc1F | -0.553
Cc1ccc(C(=O)NCCN2CCOCC2)cc1N(C)S(C)(=O)=O | 1.25
CS(=O)(=O)N1C[C@@H]2COC[C@H](C(=O)Nc3cnccn3)[C@@H]2C1 | 59.3
CSCC(C)(O)CNC(=O)c1cc(Cl)ccc1Cl (stereo not drawn) | -7.98

# input Identify measured cytotoxicity at 70.5 h corresponding to O=C1CC2(CCN(CC3CCOC3)CC2)c2ccccc2N1CC1CC1 (stereo not drawn)
# output -1.14
